Source of measurements: patent US5194437A

target: 5-HT1A receptors (Rattus norvegicus); assay: Body temperature (hypothermia), agonist and antagonist activity; type: in vivo, male Wistar rats; design: from tissue; host or cells: whole animal, male Wistar rat (in vivo); conditions: agonist: induction of hypothermia; s.c.; minimum effective dose
Sequence (P19327 whole entry): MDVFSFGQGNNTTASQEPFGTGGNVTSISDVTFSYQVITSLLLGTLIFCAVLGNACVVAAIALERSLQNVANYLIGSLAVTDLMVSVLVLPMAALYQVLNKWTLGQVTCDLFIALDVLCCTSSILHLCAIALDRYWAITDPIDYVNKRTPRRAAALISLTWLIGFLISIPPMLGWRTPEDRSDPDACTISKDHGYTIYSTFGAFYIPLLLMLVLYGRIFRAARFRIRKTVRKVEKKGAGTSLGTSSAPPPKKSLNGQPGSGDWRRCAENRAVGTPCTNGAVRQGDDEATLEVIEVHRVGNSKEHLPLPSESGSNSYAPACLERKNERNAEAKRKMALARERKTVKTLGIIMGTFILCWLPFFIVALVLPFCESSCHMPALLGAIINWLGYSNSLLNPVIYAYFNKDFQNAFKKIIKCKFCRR
measure-name: Hypothermia M.E.D. (mg/kg)

Solved entries (count: 2):
[
  {
    "compound": "O=C1CC2(CCCC2)CC(=O)N1CCCCN1CCN(c2ncccn2)CC1 [buspirone, reference compound]",
    "tested-on": "5-HT1A receptors (Rattus norvegicus)",
    "meas-value": 2.5
  },
  {
    "compound": "c1ccc2c(c1)CC(CCN1CCN(c3cccc4c3OCCO4)CC1)C2 [Example 20]",
    "tested-on": "5-HT1A receptors (Rattus norvegicus)",
    "meas-value": 10.0
  }
]

I. c1ccc2c(c1)CC(N1CCN(c3cccc4c3OCCO4)CC1)C2 [Example 7]
II. c1ccc2c(c1)CC2CCCN1CCN(c2cccc3c2OCCO3)CC1 (racemic) [Example 13]
III. c1ccc2c(c1)CCC2CCCN1CCN(c2cccc3c2OCCO3)CC1 (racemic) [Example 23]
Prompt: Falling order of Hypothermia M.E.D., please. Answer by listing the labels in the requested order.
Completion: I, II, III
(I: 20.0 mg/kg, II: 10.0 mg/kg, III: 5.0 mg/kg)
